Test system: adjuvant induced polyarthritis
Assay: Inhibition of adjuvant induced polyarthritis in rats (hind paw volume)
Assay type: in vivo, Sprague Dawley rat
Conditions: Rattus norvegicus, 552 h; 100 mg/kg of body weight, daily oral, day 23; read-out: Inhibition % 23 days (increase of hind paw volume)
recorded-endpoint: inhibition in vivo at 100 mg/kg

Worked set:
>>> df
                                   compound                recorded_endpoint  measurement
0  O=C(O)[C@@H]1O[C@H]1C(=O)OC1CCCCC1 (relative stereo) [EP-2, cyclohexyl potassium epoxysuccinate]  inhibition in vivo at 100 mg/kg          50%
1  O=C(OC1CCCC1)[C@@H]1O[C@H]1C(=O)OC1CCCC1 (relative stereo) [EP-25, dicyclopentyl epoxysuccinate]  inhibition in vivo at 100 mg/kg        77.8%

Now consider the entry below.
q: Using known records, supply inhibition in vivo at 100 mg/kg for O=C(O)[C@H]1O[C@@H]1C(=O)OCc1ccc(Cl)cc1 (relative stereo) [EP-116, p-chlorobenzyl potassium epoxysuccinate]
a: 33.5%

----------
Target: papain (Carica papaya)
Construct: purchased Sigma Chem. Co
Sequence (P00784 134-345): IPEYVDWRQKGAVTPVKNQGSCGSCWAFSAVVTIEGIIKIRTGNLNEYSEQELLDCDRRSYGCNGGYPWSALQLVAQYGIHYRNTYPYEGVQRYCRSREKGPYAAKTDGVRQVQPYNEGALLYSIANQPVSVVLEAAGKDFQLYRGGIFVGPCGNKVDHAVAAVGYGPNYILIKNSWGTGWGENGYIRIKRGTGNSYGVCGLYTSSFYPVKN
Assay: Papain inhibitory activity (milk casein digestion)
Type: biochemical
Settings: papain 80 μg/ml 0.5 ml, cysteine, pH 6.8, 1% milk casein, 40° C., 10 minutes
recorded-endpoint: ID50 (amount of inhibitor for 50% inhibition)

Worked set:
>>> df
                                   compound  measurement
0  O=C(OC1CCC(Cl)C1)C1OC1C(=O)OC1CCC(Cl)C1 (stereo not shown) [EP-29]       3.12 γ
1  O=C(O)[C@@H]1O[C@H]1C(=O)OC1C2CC3CC(C2)CC1C3 (relative stereo) [EP-38, 2-adamantyl potassium epoxysuccinate]       0.06 γ
2  Cc1cc(C)c(COC(=O)[C@@H]2O[C@H]2C(=O)OCc2c(C)cc(C)cc2C)c(C)c1 (relative stereo) [EP-95]       4.20 γ
3  O=C(NCCCC[C@H](NC(=O)C1OC1C(=O)OCCc1ccccc1)C(=O)OCc1ccccc1)OCc1ccccc1 (stereo partly shown) [EP-187]       1.40 γ
4  CCOC(=O)C1OC1C(=O)N[C@@H](Cc1c[nH]cn1)C(=O)OC (stereo partly shown) [EP-185]      14.05 γ

q: Using known records, supply ID50 (amount of inhibitor for 50% inhibition) for Cc1ccc(COC(=O)[C@@H]2O[C@H]2C(=O)O)cc1 (relative stereo) [EP-90, p-methylbenzyl potassium epoxysuccinate]
a: 0.25 γ

q: Using known records, supply ID50 (amount of inhibitor for 50% inhibition) for O=C(O)[C@@H]1O[C@H]1C(=O)OC1CCCCC1 (relative stereo) [EP-2, cyclohexyl potassium epoxysuccinate]
a: 0.07 γ

----------
Measured ID50 (amount of inhibitor for 50% inhibition) of individual entries
Molecular target: papain (Carica papaya)
Construct: purchased Sigma Chem. Co
Assay: Papain inhibitory activity (milk casein digestion)
Type: biochemical
Details: papain 80 μg/ml 0.5 ml, cysteine, pH 6.8, 1% milk casein, 40° C., 10 minutes
Where a name gives a salt, the structure may show the parent alone.

compound	assayed-target	measurement
CC(C)C[C@H](NC(=O)C1OC1C(=O)[O-])C(=O)[O-].[K+].[K+] (stereo partly drawn)	papain (Carica papaya)	0.20 γ
O=C(OCc1cccc(C(F)(F)F)c1)[C@@H]1O[C@H]1C(=O)OCc1cccc(C(F)(F)F)c1 (relative stereo)	papain (Carica papaya)	0.50 γ
O=C(NCCC[C@H](NC(=O)C1OC1C(=O)O)C(=O)OCc1ccccc1)OCc1ccccc1 (stereo partly drawn) [EP-196, potassium salt]	papain (Carica papaya)	0.11 γ
O=C(O)[C@@H]1O[C@H]1C(=O)OCc1cccc2c(Br)cccc12 (relative stereo)	papain (Carica papaya)	0.27 γ
O=C(O)[C@H]1O[C@@H]1C(=O)OCc1cc(Cl)ccc1Cl (relative stereo)	papain (Carica papaya)	0.11 γ

q: Using known records, supply ID50 (amount of inhibitor for 50% inhibition) for CCOC(=O)C1OC1C(=O)N[C@@H](CC(N)=O)C(=O)OCc1ccccc1 (stereo partly drawn)
a: 22.60 γ
